Quick list: phosphorylation enrichment per entry.
# Test system: AncSZ
# method description: phosphorylation enrichment, bacterial display (enrichment ratio); higher = better substrate or ligand; peptides without Tyr show the background;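 further: 11-residue human phosphosite peptides and single-mutation variants displayed on the E. coli surface, counted by deep sequencing, each peptide's frequency after selection divided by its frequency in the unselected input library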;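 further: frequency after pTyr selection over input frequency; kinase dosed for 20-30% of maximal phosphorylation in three min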
Form field (numeric): enter value without unit.

Some sequences with recorded phosphorylation enrichment:
- LPKEQYLYTKE [AFG3L2_Y614]: 1.3
- HLWRIYYDITD [MMP27_Y307]: 3.29

Next sequence, phosphorylation enrichment to be filled in.
Output measured phosphorylation enrichment for this item: PVQAAYQKVEA [HBB_Y131_V135E]
0.921

----------
# study target: Hck (UniProt P08631)
# Sequence (P08631 whole entry, looked up): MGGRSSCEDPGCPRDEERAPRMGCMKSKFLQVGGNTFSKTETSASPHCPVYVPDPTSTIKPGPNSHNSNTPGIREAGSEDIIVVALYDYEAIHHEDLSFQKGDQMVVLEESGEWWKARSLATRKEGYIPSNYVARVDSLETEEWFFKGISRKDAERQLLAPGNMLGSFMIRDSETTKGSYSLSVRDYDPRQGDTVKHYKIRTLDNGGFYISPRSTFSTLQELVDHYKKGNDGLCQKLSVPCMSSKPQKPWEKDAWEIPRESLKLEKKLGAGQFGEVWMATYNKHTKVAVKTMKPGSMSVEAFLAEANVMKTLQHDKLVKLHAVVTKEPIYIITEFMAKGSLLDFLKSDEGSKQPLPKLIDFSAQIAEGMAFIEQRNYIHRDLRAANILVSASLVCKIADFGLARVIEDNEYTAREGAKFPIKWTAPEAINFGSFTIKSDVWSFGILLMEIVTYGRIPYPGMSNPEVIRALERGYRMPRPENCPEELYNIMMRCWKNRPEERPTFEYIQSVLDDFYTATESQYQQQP
# method description: phosphorylation enrichment, bacterial display (enrichment ratio); higher = better substrate or ligand; peptides without Tyr show the background
phosphorylation enrichment values, listed per item
Lab note: record just the number, no unit beside it.

• YRAPGYREVVI [TNS2_Y673] = 0.439
• PEADKYRLTFA [FGG_Y300_YF] = 0.76
• DRIVNYSRASI [ATP7A_Y1459] = 0.405
• QQLDKYQELLD [LMNA_Y359_E358K] = 0.441
• ADSLRYIFPKL [EIF2B3_Y92_YF] = 0.413

Okay, next one:
For Hck (UniProt P08631), give phosphorylation enrichment of the listed sequence: LYSNAYLNDLA [ALDH1A1_Y119]
1.45
